Molecular target: Bile acid receptor (Homo sapiens, UniProt Q96RI1)
Sequence (Q96RI1 whole entry): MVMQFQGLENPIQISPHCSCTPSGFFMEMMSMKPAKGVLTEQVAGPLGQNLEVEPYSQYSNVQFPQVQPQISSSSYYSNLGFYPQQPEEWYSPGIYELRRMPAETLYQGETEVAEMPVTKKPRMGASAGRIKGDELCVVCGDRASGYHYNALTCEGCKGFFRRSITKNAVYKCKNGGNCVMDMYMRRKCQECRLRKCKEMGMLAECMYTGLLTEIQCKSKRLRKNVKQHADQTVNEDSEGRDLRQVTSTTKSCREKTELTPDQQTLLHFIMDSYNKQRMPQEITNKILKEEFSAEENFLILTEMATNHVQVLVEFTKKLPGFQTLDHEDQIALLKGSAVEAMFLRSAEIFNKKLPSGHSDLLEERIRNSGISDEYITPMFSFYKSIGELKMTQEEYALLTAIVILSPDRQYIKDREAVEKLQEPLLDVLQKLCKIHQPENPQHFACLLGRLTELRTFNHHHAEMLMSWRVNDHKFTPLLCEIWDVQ
Assay: Antagonist activity against FXR assessed as transactivation of luciferase reporter gene in CV1 cells
Form field: log10(IC50) (one value per entry).
In plain terms, each number is the log10 of measured IC50 in µM.

**Q:** Respond only with log10(IC50) recorded for CC(=O)OC[C@@]12CCC3C(C)(C)CCC[C@]3(C)C1C[C@@H](O)[C@@]1(C)C2CC=C2CO[C@@H](O)[C@@H]21 (stereo not given in full)
**A:** 1.40
